- Assay notes: Binding affinity to HIV1 wild type [32P]-labeled RRE-2B RNA after 4 hrs by electrophoretic mobility shift assay
- Parameters: species or system Human immunodeficiency virus 1
Side chains are listed from the residue outwards. Peptide text beside a SMILES is read from it. * marks the point of attachment. X1 = NCCCC[C@H](N)C(=O)N[C@@H](CCCCNc1c2ccccc2nc2ccccc12)C(=O)*; X3 = NCCCC[C@H](N)C(=O)N[C@@H](CCCCNC(=O)c1ccc(B(O)O)cc1)C(=O)*; Benzoyl(4-B(OH)2) = O=C(c1ccc(B(O)O)cc1)*; Acridin9yl = c1ccc2c(*)c3ccccc3nc2c1
Overview of recorded Kd for various compounds
Value expressed in nM; do not type the unit.

Some entries whose results are on file:
CC(C)C[C@H](NC(=O)[C@H](CC(C)C)NC(=O)[C@H](CCCCNC(=O)[C@H](CCCCN)NC(=O)[C@H](CCCCNC(=O)c1ccc(B(O)O)cc1)NC(=O)[C@@H](N)CCCCN)NC(=O)[C@H](CCCCN)NC(=O)[C@H](CCCCNC(=O)c1ccc(B(O)O)cc1)NC(=O)[C@@H](N)CCCCN)C(=O)N[C@@H](CCCCN)C(=O)N[C@@H](Cc1ccc(O)cc1)C(N)=O (H-KK(Benzoyl(4-B(OH)2))KK([Lys-X3])LLKY-NH2)
660
CC(C)C[C@H](NC(=O)[C@H](CCCCN)NC(=O)[C@H](CCCCNC(=O)[C@H](CCCCN)NC(=O)[C@H](CCCCNc1c2ccccc2nc2ccccc12)NC(=O)[C@@H](N)CCCCN)NC(=O)[C@H](CCCCN)NC(=O)[C@H](CCCCNc1c2ccccc2nc2ccccc12)NC(=O)[C@@H](N)CCCCN)C(=O)N[C@@H](CCCCNC(=O)c1ccc(B(O)O)cc1)C(=O)N[C@@H](Cc1ccc(O)cc1)C(N)=O (H-KK(Acridin9yl)KK([Lys-X1])KLK(Benzoyl(4-B(OH)2))Y-NH2)
70

Now look at this one.
// Kd lookup, key: CC(C)C[C@H](NC(=O)[C@@H](N)CCCCN)C(=O)N[C@@H](CCCCN)C(=O)NCCCC[C@H](NC(=O)[C@H](CCCCN)NC(=O)[C@H](CC(C)C)NC(=O)[C@@H](N)CCCCN)C(=O)N[C@@H](CCCCN)C(=O)N[C@@H](CCCCN)C(=O)N[C@@H](CCCCNC(=O)c1ccc(B(O)O)cc1)C(=O)N[C@@H](Cc1ccc(O)cc1)C(N)=O (H-KLKK([Lys-Leu-Lys])KKK(Benzoyl(4-B(OH)2))Y-NH2)
1430
